Listed next: entries and their corresponding IC50.
molecular target: human LPAR1 (Homo sapiens); test: In vitro functional assay of lysophosphatidic acid receptor 1 activity (calcium flux); type: cell-based; settings: LPAR1 IC50
Sequence (Q92633 whole entry): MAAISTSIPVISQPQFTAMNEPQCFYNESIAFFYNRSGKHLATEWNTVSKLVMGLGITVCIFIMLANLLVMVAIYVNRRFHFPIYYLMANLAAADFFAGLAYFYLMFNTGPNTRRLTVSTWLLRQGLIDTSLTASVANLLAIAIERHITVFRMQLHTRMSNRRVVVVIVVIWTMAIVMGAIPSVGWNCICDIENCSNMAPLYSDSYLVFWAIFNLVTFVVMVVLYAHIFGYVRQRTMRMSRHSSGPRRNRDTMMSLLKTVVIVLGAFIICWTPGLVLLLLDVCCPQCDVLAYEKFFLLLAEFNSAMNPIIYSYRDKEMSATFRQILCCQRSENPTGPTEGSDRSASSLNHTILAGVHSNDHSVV

| molecule | assaySystem | result |
| --- | --- | --- |
| C=C(C)c1ccccc1N(C(=O)Nc1ccc(C)nc1OC(F)F)C1CCN(C(C)=O)CC1 | human LPAR1 (Homo sapiens) | 10 to 100 nM |
| COc1ccc(NC(=O)N(c2ccccc2C(C)C)C23CCN(C(C)=O)CC2C3)c(OC(F)F)n1 (stereo not shown) | human LPAR1 (Homo sapiens) | 10 to 100 nM |
| CC(=O)N1CCC(N(C(=O)Nc2cnccn2)c2ccccc2C(C)C)CC1 | human LPAR1 (Homo sapiens) | > 1000 nM |
| COc1ccc(NC(=O)N(c2ccccc2C(C)C)C2C3CC2CN(C(C)=O)C3)c(OC(F)F)n1 (stereo not shown) | human LPAR1 (Homo sapiens) | 100 to 1000 nM |
| CCOc1nc(C)ccc1NC(=O)N(c1ccccc1C(C)C)C1CCN(C(C)=O)CC1 | human LPAR1 (Homo sapiens) | 100 to 1000 nM |

Below: the item to evaluate.
Sample COc1ccc(NC(=O)N(c2ccccc2C(C)C)[C@H]2CCN(C(C)=O)C[C@H]2F)c(OC(F)F)n1 (racemic) [Example 47] ; IC50 observed: 10 to 100 nM
